I'd appreciate it if you could supply melting point values for the items below.

Using known records, supply melting point for COc1cccc(-c2ccc3c(c2)NC(=O)OC3(C)C)c1 [Example 49]
167 to 168 °C

Using known records, supply melting point for CC1(C2CC2)OC(=O)Nc2ccc(-c3cccc(Cl)c3)cc21 (centres unmarked) [Example 41]
158 to 159 °C

Using known records, supply melting point for COc1cc(C#N)cc(-c2ccc3c(c2)C(C)(C)OC(=O)N3)c1 [Example 63]
254 to 255 °C

Using known records, supply melting point for N#Cc1cc(F)cc(-c2ccc3c(c2)C2(CCCCC2)OC(=O)N3)c1 [Example 107]
250 to 253 °C

Using known records, supply melting point for CC1(C)OC(=O)Nc2c(F)cc(-c3ccc(F)c(Cl)c3)cc21 [Example 71]
246 to 248 °C

----------
QUANTITY_MEASURED: melting point

Using known records, supply melting point for "CC1(C)OC(=O)Nc2ccc(-c3cccc(C(=O)c4ccccc4)c3)cc21"
156 to 157 °C

Using known records, supply melting point for "N#Cc1ccc(-c2ccc3c(c2)C2(CCCCC2)OC(=O)N3)s1"
243 to 245 °C

Using known records, supply melting point for "CC1(C)OC(=O)Nc2ccc(-c3cccc(CC#N)c3)cc21"
188 to 190 °C

Using known records, supply melting point for O=C1Nc2ccc(-c3cccc(Cl)c3)cc2C(c2ccccc2)O1 (stereo not drawn)
177 to 178 °C

Using known records, supply melting point for "CC1(C)OC(=O)Nc2ccc(-c3ccc(CC#N)c(F)c3)cc21"
253 to 256 °C

Using known records, supply melting point for "Cn1c(-c2ccc3c(c2)C(C)(C)OC(=O)N3)ccc1[N+](=O)[O-]"
180 to 185 °C
